Just for reference, patent US8349851B2 is where these values come from.

pKd: −log10 of the molar value.
Quick note: these are pKd numbers for system: UniProt:P52333
Sequence (P52333 822-1111 limits assumed): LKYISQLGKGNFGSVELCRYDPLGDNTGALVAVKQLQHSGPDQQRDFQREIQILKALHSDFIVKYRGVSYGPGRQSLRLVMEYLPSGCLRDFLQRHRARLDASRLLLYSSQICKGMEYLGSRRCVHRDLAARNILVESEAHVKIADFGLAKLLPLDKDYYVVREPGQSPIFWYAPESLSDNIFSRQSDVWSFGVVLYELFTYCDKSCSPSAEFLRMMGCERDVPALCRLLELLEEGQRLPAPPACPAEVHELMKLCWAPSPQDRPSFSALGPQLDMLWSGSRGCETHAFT

compound: Cc1ccc2c(Nc3cc(C)[nH]n3)nc(C(O)c3ccc(F)cc3)nc2c1 (racemic)
result type: pKd
meas value: 7.00 to 8.00
//
compound: Cc1cc(Nc2nc(C(=O)c3ccc(F)cc3)nc3cc(Br)ccc23)n[nH]1
result type: pKd
meas value: 7.00 to 8.00
//
compound: Cc1cc(Nc2nc(C(O)c3ccc(F)cc3)nc3cccc(F)c23)n[nH]1 (racemic)
result type: pKd
meas value: < 7.00
//
compound: Cc1cc(Nc2nc(C(O)c3ccc(F)cc3)nc3cc(O)ccc23)n[nH]1 (racemic)
result type: pKd
meas value: 7.00 to 8.00
//
compound: Cc1cc(Nc2nc(C(O)c3cccc(F)c3)nc3ccccc23)n[nH]1 (centres unmarked)
result type: pKd
meas value: 7.00 to 8.00

Exercise: Record lookup: for UniProt:P52333, what pKd belongs to COc1ccc2c(Nc3cc(C)[nH]n3)nc(C(O)c3ccc(F)cc3)nc2c1 (racemic) ?
Solution: 7.00 to 8.00

Exercise: Record lookup: for UniProt:P52333, what pKd belongs to Cc1cc(Nc2nc(C(O)c3ccc(F)cc3)nc3cc(OC4CCNCC4)ccc23)n[nH]1 (centres unmarked) ?
Solution: ≥ 8.00

Exercise: Record lookup: for UniProt:P52333, what pKd belongs to Cc1cc(Nc2nc(C(O)c3ccc(F)cc3)nc3cc(F)ccc23)n[nH]1 (racemic) ?
Solution: 7.00 to 8.00

Exercise: Record lookup: for UniProt:P52333, what pKd belongs to Cc1ccc2c(Nc3cc[nH]n3)nc(C(F)(F)c3ccc(F)cc3)nc2c1 ?
Solution: 7.00 to 8.00

Exercise: Record lookup: for UniProt:P52333, what pKd belongs to N#Cc1cc(Nc2nc(C(O)c3ccc(F)cc3)nc3ccccc23)n[nH]1 (racemic) ?
Solution: < 7.00

Exercise: Record lookup: for UniProt:P52333, what pKd belongs to CCOCc1ccc2c(Nc3cc(C)[nH]n3)nc(C(F)(F)c3ccc(F)cc3)nc2c1 ?
Solution: ≥ 8.00

Exercise: Record lookup: for UniProt:P52333, what pKd belongs to Cc1ccc2c(Nc3cc(C)[nH]n3)nc(C(=O)c3ccc(F)cc3)nc2c1 ?
Solution: 7.00 to 8.00

Exercise: Record lookup: for UniProt:P52333, what pKd belongs to COc1ccc2c(Nc3cc[nH]n3)nc(C(=O)c3ccc(F)cc3)nc2c1 ?
Solution: < 7.00

Exercise: Record lookup: for UniProt:P52333, what pKd belongs to Cc1cc(Nc2nc(C(O)c3ccc(F)cc3)nc3ccc(F)cc23)n[nH]1 (racemic) ?
Solution: < 7.00
